Just for reference, patent US10550105B2 is where these values come from.

Biological target: UniProtKB Q7Z3E1
Assay: Enzymatic assay for inhibition of PARP7: TR-FRET displacement of biotinylated Probe A from the TIPARP active site
Conditions: Table A-1
experimental_readout: IC50

Would you please look over these solved cases?
{"molecule": "Cc1cnc(N2CCN(C(=O)CCOC[C@H](C)Nc3cn[nH]c(=O)c3C(F)(F)F)CC2)s1", "IC50": "< 100 nM"}
{"molecule": "O=c1[nH]ncc(N2Cc3ccc(OC4CCNCC4)cc3C2)c1C(F)(F)F", "IC50": "< 100 nM"}
{"molecule": "O=c1[nH]ncc(N2Cc3ccc(OCCO)nc3C2)c1C(F)(F)F", "IC50": "100 to 1000 nM"}
{"molecule": "C[C@H]1C[C@@H](COc2cccc(C(=O)N3CCN(c4ccc(C#N)cn4)CC3)c2)N(c2cn[nH]c(=O)c2C(F)(F)F)C1", "IC50": "< 100 nM"}
{"molecule": "O=c1[nH]ncc(N2Cc3ccc(OC4CCNC4)cc3C2)c1C(F)(F)F (centres unmarked)", "IC50": "< 100 nM"}

Reported IC50, molecule N#Cc1cnc(N2CCN(C(=O)c3cccc(OC[C@H]4CCCN4c4cn[nH]c(=O)c4C(F)(F)F)c3)CC2)nc1 : ____
≥ 1000 nM

Reported IC50, molecule CC[C@@H](COCCC(=O)N1CCN(c2ncc(C(F)(F)F)cn2)CC1)Nc1cn[nH]c(=O)c1C(F)(F)F : ____
< 100 nM

Reported IC50, molecule C[C@H](COC[C@@H]1CCCN1c1cn[nH]c(=O)c1C(F)(F)F)C(=O)N1CCN(c2ccc(C#N)cn2)CC1 (single isomer, unassigned) [Example 94 Isomer A] : ____
< 100 nM

###

pIC50 by entry:
Target: PARP7 (Homo sapiens (Human), UniProt Q7Z3E1)
Sequence (Q7Z3E1 whole entry): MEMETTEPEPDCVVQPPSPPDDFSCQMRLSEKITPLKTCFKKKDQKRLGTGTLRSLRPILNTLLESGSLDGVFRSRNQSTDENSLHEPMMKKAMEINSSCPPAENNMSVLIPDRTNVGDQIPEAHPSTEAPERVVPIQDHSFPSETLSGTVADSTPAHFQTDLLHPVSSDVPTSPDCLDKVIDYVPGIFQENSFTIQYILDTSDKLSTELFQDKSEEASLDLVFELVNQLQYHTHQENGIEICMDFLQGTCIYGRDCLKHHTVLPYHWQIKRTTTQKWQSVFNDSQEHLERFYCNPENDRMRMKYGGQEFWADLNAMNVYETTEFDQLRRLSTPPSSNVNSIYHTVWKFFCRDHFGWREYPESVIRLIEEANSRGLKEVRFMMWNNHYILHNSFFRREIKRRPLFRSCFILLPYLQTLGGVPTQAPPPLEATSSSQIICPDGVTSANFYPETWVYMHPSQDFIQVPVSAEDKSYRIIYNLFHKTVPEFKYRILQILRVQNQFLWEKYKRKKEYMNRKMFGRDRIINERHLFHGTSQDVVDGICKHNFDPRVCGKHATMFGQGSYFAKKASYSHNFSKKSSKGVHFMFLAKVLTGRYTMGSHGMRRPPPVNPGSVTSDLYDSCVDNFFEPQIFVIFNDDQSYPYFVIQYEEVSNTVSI
Experiment: Enzymatic assay for inhibition of PARP7: TR-FRET displacement of biotinylated Probe A from the TIPARP active site
Settings: Table A-1
pIC50: −log10 of the molar value.

Would you please look over these solved cases?
{"compound": "N#Cc1ccc(N2CCN(C(=O)CCOC[C@@H](Nc3cn[nH]c(=O)c3C(F)(F)F)c3ccccc3)CC2)nc1 [Example 514B]", "tested_on": "PARP7 (Homo sapiens (Human), UniProt Q7Z3E1)", "recorded_measurement": "> 7.00"}
{"compound": "O=c1[nH]ncc(N2Cc3cccc(OC4CCNCC4)c3C2)c1Cl [Example 165]", "tested_on": "PARP7 (Homo sapiens (Human), UniProt Q7Z3E1)", "recorded_measurement": "≤ 6.00"}
{"compound": "CN1CCC(Oc2ccc3c(n2)CN(c2cn[nH]c(=O)c2C(F)(F)F)C3)CC1 [Example 6]", "tested_on": "PARP7 (Homo sapiens (Human), UniProt Q7Z3E1)", "recorded_measurement": "6.00 to 7.00"}
{"compound": "C[C@@H](COc1cn[nH]c(=O)c1C(F)(F)F)OCCC(=O)N1CCN(c2ncc(C(F)(F)F)cn2)CC1 (single isomer, unassigned) [Example 544 Isomer C]", "tested_on": "PARP7 (Homo sapiens (Human), UniProt Q7Z3E1)", "recorded_measurement": "> 7.00"}
{"compound": "O=c1[nH]ncc(N2Cc3ccncc3C2)c1Cl [Example 152]", "tested_on": "PARP7 (Homo sapiens (Human), UniProt Q7Z3E1)", "recorded_measurement": "6.00 to 7.00"}

Reported pIC50, compound N#Cc1ccc(N2CCN(C(=O)CCO[C@H]3CCC[C@@H]3Oc3cn[nH]c(=O)c3C(F)(F)F)CC2)nc1 (single isomer, unassigned) [Example 572 Isomer A] : ____
> 7.00

Reported pIC50, compound CC(CC(=O)N1CCN(c2ccc(C#N)cn2)CC1)OC[C@@H](C)Oc1cn[nH]c(=O)c1C(F)(F)F (stereo partly drawn) [Example 569] : ____
6.00 to 7.00

Reported pIC50, compound N#Cc1ccc(N2CCN(C(=O)C[C@@H]3CC[C@H](CNc4cn[nH]c(=O)c4C(F)(F)F)O3)CC2)nc1 [Example 581 Isomer D] : ____
> 7.00

Reported pIC50, compound N#Cc1ccc(N2CCN(C(=O)CCOCC3c4ncccc4CN3c3cn[nH]c(=O)c3C(F)(F)F)CC2)nc1 (stereo not drawn) [Example 412] : ____
> 7.00

Reported pIC50, compound N#Cc1ccc(N2CCN(C(=O)c3cccc(OC[C@H]4c5ccccc5CN4c4cn[nH]c(=O)c4C(F)(F)F)c3)CC2)nc1 (single isomer, unassigned) [Example 18 Isomer A] : ____
6.00 to 7.00

Reported pIC50, compound N#Cc1cccc2c1CN(c1cn[nH]c(=O)c1C(F)(F)F)C2 [Example 206] : ____
> 7.00

Reported pIC50, compound N#Cc1ccc(N2CCN(C(=O)CCO[C@H]3CC[C@H]3Nc3cn[nH]c(=O)c3C(F)(F)F)CC2)nc1 [Example 541] : ____
> 7.00
